# target of assay: T1, recombinant human PDL1 (human, UniProt Q9NZQ7 19-238, limits assumed)
# T1 construct: SPR antigen; also called CD274; B7-H1
# method description: SPR
endpoint label: Kd (nM)
// return numeric value only (unit: nM, not printed)

1. PRO2230 (scFv, anti-PDL1 scFv; also called 37-20-B03-sc09.1) scFv: DIQMTQSPASLSASVGDRVTITCQASQSIGTYLAWYQQKPGKPPKLLIYRAFILASGVPSRFSGSGSGTDFTLTISSLQPEDFATYYCQSNFYSDSTTIGPNAFGTGTKVTVLGGGGGSGGGGSGGGGSGGGGSEVQLVESGGGLVQPGGSLRLSCAASGFSFNSDYWIYWVRQAPGKGLEWIASIYGGSSGNTQYASWAQGRFTISRDNSKNTVYLQMNSLRAEDTAVYFCARGYVDYGGATDLWGQGTLVTVSS: 0.015

// switching to the query binder
Per the records, this binder ( PRO5036 (scFv, anti-PDL1 scFv) scFv: DIQMTQSPSSLSASVGDRVTITCQASQSIGTYLAWYQQKPGKPPKLLIYRGGILASGVPSRFSGSGSGTDFTLTISSLQPEDFATYYCQSNFYSDSTTIGPNAFGTGTKVTVLGGGGGSGGGGSGGGGSGGGGSQQLVESGGGLVQPGGSLRLSCAASGFSFNSDYWIYWVRQAPGKGLEWIASIYGGSSGNTQYASWAQGRFTISKDNSKNTVYLQMNSLRAEDTAVYFCARGYVDYGGATDLWGQGTLVTVSS ) has Kd equal to 0.034
